Where these numbers come from: patent US9006228B2

Property: EC50; scope: individual compounds
measurementTarget: human GPR119 (Homo sapiens)
Sequence (Q8TDV5 1-308 limits assumed): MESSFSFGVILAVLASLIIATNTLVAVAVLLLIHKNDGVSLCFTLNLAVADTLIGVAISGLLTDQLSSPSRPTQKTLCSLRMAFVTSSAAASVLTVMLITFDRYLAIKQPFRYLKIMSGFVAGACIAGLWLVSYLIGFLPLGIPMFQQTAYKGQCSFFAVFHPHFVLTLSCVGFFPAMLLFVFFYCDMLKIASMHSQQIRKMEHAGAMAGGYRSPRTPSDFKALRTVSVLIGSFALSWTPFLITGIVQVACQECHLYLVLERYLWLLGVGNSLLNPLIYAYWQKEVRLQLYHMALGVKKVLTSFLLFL
testDetails: Measurement of GPR119 signaling (cAMP assay; LANCE kit or HTRF) in HEK293 cells stably transfected with human GPR119
assaySetup: agonist-stimulated cAMP in HEK293 cells expressing human GPR119
Entry rule: numbers only, all in nM.

# annotated cases, reported EC50 shown
[
  {
    "entrySmiles": "CCCOC(=O)N1CCC([C@H]2C[C@H]2COCc2ccc(S(C)(=O)=O)cc2)CC1",
    "measurementTarget": "human GPR119 (Homo sapiens)",
    "EC50 / nM": 16
  },
  {
    "entrySmiles": "CCc1cnc(N2CCC([C@H]3C[C@H]3COCc3ccc(-c4cccnn4)cc3)CC2)nc1",
    "measurementTarget": "human GPR119 (Homo sapiens)",
    "EC50 / nM": 1.1
  }
]

# ---- query compound ----
Look up EC50 with human GPR119 (Homo sapiens) for this compound: "O=S(=O)(c1ccc(COC[C@@H]2C[C@@H]2C2CCN(c3nc(C4CC4)no3)CC2)cc1)C1CC1" 12
